This collection of values is drawn from patent US20260365670A1.

# measuredOn: EGFR Exon19Del/T790M (Homo sapiens, UniProt P00533, DEL746-750/T790M)
# Construct: purchased Carna Bio
# Sequence (P00533 with tags, fused parts or gaps DEL746-750/T790M limits assumed): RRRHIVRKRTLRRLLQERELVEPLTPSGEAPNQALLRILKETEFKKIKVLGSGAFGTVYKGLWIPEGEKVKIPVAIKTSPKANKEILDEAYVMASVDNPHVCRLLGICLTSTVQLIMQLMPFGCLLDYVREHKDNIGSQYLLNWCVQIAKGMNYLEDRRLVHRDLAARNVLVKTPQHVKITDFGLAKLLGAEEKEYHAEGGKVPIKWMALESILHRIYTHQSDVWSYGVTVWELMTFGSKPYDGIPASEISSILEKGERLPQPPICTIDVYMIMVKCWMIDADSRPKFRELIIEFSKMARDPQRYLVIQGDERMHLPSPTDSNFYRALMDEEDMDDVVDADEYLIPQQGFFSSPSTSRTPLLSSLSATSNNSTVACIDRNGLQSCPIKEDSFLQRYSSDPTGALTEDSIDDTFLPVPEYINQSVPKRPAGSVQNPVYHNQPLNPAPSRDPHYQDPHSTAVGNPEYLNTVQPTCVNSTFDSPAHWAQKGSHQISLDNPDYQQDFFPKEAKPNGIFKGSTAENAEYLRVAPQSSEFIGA
# assayMethodText: Inhibition of EGFR Exon19Del/T790M biochemical enzymatic activity (HTRF)
# experimentalParameters: EGFR Del19-T790M, 1 mM ATP, 1 h, room temperature, read-out: IC50 (nM) @Del19-T790M
Label 1 when IC50 < 10 nM; otherwise -1.

molecule: C[C@@H]1CCCOc2c(cnn2C)-c2cc(cn(C)c2=O)C(=O)Nc2nc3ccc(N4CCN(C)CC4)cc3n2C1
measuredOn: EGFR Exon19Del/T790M (Homo sapiens, UniProt P00533, DEL746-750/T790M)
cat: 1

molecule: C[C@@H]1CCCOc2c(cnn2C)-c2cc(cn(C)c2=O)C(=O)Nc2nc3ccc(N4CC5(CCN(C)CC5(F)F)C4)cc3n2C1
measuredOn: EGFR Exon19Del/T790M (Homo sapiens, UniProt P00533, DEL746-750/T790M)
cat: -1

molecule: C[C@@H]1CCCOc2cc(F)c(F)cc2-c2cc(cn(C)c2=O)C(=O)Nc2nc3ccc(N4CCN(C)CC4)cc3n2C1
measuredOn: EGFR Exon19Del/T790M (Homo sapiens, UniProt P00533, DEL746-750/T790M)
cat: -1

molecule: Cc1cc2cc(n1)-c1cnn(C)c1OCCN1CC3CCC(CC3)(C1)n1c(nc3ccc(N4CCN(C)CC4)cc31)NC2=O
measuredOn: EGFR Exon19Del/T790M (Homo sapiens, UniProt P00533, DEL746-750/T790M)
cat: 1

molecule: CN(C)CCCN(C)c1ccc2nc3n(c2c1)C12CCC(CN(CCOc4c(cnn4C)-c4cc(cn(C)c4=O)C(=O)N3)C1)C2 (single isomer, unassigned) [Example A89A]
measuredOn: EGFR Exon19Del/T790M (Homo sapiens, UniProt P00533, DEL746-750/T790M)
cat: -1

molecule: CN1CCOC2(C1)CN(c1ccc3nc4n(c3c1)C13CCC(CN(CCOc5c(cnn5C)-c5cc(cn(C)c5=O)C(=O)N4)C1)C3)C2 (single isomer, unassigned) [Example A86B]
measuredOn: EGFR Exon19Del/T790M (Homo sapiens, UniProt P00533, DEL746-750/T790M)
cat: 1

----------
// reported IC50 per item
# measuredOn: EGFR wild type (Homo sapiens, UniProt P00533)
# Construct: purchased Carna Bio
# Sequence (P00533 25-1210): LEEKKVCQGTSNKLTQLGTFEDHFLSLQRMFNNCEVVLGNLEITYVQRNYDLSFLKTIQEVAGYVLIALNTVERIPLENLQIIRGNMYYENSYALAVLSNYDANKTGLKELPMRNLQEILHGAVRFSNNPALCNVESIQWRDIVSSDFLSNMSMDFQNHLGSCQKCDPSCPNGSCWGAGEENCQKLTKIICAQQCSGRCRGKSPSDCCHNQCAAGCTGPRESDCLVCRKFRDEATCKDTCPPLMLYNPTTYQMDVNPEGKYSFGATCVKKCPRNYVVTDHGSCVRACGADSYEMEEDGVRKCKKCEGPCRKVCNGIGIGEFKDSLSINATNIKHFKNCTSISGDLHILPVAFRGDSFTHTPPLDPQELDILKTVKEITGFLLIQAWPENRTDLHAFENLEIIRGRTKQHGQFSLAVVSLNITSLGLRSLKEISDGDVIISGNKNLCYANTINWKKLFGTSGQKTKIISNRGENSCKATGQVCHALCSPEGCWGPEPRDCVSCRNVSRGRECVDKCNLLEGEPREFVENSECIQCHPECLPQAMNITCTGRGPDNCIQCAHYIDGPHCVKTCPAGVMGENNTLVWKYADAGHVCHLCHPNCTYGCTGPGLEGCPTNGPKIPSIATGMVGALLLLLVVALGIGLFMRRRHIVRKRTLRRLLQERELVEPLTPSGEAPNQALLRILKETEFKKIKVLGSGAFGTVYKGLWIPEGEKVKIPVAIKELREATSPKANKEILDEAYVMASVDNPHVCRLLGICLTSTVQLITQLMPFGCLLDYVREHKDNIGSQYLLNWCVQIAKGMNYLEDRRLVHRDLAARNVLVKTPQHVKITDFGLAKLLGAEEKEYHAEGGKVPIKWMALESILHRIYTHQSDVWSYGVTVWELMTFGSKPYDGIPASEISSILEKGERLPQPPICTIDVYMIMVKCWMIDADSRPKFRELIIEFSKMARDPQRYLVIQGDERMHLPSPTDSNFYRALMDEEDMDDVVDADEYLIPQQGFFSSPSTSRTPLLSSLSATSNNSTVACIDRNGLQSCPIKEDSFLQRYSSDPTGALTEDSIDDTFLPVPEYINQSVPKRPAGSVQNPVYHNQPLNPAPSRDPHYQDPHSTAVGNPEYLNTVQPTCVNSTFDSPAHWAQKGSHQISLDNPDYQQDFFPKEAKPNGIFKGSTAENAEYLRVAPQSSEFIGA
# assayMethodText: Inhibition of EGFR wild type biochemical enzymatic activity (HTRF)
# experimentalParameters: EGFR WT, 1 mM ATP, 1 h, room temperature, read-out: IC50 (nM) @WT
# Experimental: Biological Example 1: Inhibition of EGFR WT and Mutant Biochemical Enzymatic Activity The inhibition potency of compounds against these enzymes was assessed using Homogenous Time Resolved Fluorescence approach (HTRF, CisBio. Cat No. 62TKOPEJ). Inhibitory effects of the compounds were determined by measuring the enzymatic activity of EGFR enzyme phosphorylates 1 μM TK Substrate-biotin in the presence of 1 mM adenosine-5′-triphosphate (ATP) and varying concentrations of the test compound. […]
measure: IC50

molecule: CN(C)C1CN(c2ccc3nc4n(c3c2)C23CCC(CN(CCOc5c(cnn5C)-c5cc(cn(C)c5=O)C(=O)N4)C2)C3)CC1F (single isomer, unassigned) [Example A84A]
result: > 5000 nM
//
molecule: CN1C2CC1CN(c1ccc3nc4n(c3c1)C13CCC(CN(CCOc5c(cnn5C)-c5cc(cn(C)c5=O)C(=O)N4)C1)C3)C2 (single isomer, unassigned) [Example A98B]
result: 21 nM
//
molecule: Cc1cc2cc(n1)-c1cnn(C3CC3)c1OCCN(CC(F)(F)F)CCn1c(nc3ccccc31)NC2=O [Example B6]
result: > 5000 nM
//
molecule: CCN1CCN(c2ccc3nc4n(c3c2)C23CCC(CN(CCOc5c(cnn5C)-c5cc(cn(C)c5=O)C(=O)N4)C2)C3)CC1 (single isomer, unassigned) [Example A107A]
result: > 5000 nM
//
molecule: CN1CCC2CN(c3ccc4nc5n(c4c3)C34CCC(CN(CCOc6c(cnn6C)-c6cc(cn(C)c6=O)C(=O)N5)C3)C4)CC21 (single isomer, unassigned) [Example A79A]
result: > 5000 nM
//
molecule: Cn1ncc2c1OCCN1CC(CCC1(C)C)n1c(nc3ccc(N4CCOCC4)cc31)NC(=O)c1cc-2c(=O)n(C)c1 (stereo not drawn) [Example A12]
result: > 5000 nM
